# Tested on: BaF3
# protocol: Antiproliferative activity against gefitinib sensitive mouse BA/F3 cells expressing EGFR exon 19 del E746_A750 activating mutant after 72 hrs by MTS assay
# Assay type: functional, cell-based
# settings: BaF3, 72 h
assay-readout: IC50 (nM)

C=CC(=O)Nc1cccc(Oc2nc(Nc3ccc(N4CCN(C)CC4)cc3)ncc2Cl)c1	2

I = C=CC(=O)Nc1cccc(Sc2nc(Nc3ccc(N4CCN(C)CC4)cc3)ncc2Cl)c1
II = C=CC(=O)Nc1cccc(Oc2nc(Nc3ccc(N4CCN(C)CC4)cc3OC)ncc2Cl)c1
Of the pair I and II , name the member with the lesser recorded IC50. Response format: the label of the selected entry.
I
(I: 2 nM, II: 3 nM)
